# Subject of test: Cannabinoid receptor 1 (Homo sapiens, UniProt P21554)
# Sequence (P21554 whole entry): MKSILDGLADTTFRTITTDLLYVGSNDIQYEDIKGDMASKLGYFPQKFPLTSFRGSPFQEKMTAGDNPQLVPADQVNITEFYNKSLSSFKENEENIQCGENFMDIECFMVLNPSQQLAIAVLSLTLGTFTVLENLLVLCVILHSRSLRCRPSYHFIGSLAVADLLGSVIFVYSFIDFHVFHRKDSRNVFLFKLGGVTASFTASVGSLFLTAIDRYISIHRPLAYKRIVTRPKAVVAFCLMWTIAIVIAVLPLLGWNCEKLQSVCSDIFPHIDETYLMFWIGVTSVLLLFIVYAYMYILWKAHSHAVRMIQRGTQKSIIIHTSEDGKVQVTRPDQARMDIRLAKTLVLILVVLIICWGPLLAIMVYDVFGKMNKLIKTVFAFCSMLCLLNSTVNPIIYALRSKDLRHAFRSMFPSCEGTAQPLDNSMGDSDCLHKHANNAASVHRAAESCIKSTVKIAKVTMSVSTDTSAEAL
# Condition summary: CHO-K1;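 further: antagonism measured as blockade of CP55940-evoked intracellular Ca2+ rise, read fluorometrically, in cells additionally carrying Galphaq16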
# Description: Antagonist activity at human CB1 receptor expressed in CHO-K1 cells co-expressing Galphaq16 assessed as inhibition of CP55940-induced intracellular calcium mobilization by fluorometry
Reported Ke values follow for various molecules
Dear colleague, please return just the value in nM, with no unit written.

Use these answered entries as a reference point.
- CCNC(=O)N1CCC[C@@H](NC(=O)c2nn(-c3ccc(Cl)cc3Cl)c(-c3ccc(Cl)cc3)c2C)C1: 171
- Cc1c(C(=O)NCC2CCC(CNC(=O)NC(C)(C)C)CC2)nn(-c2ccc(Cl)cc2Cl)c1-c1ccc(Cl)cc1 (stereo not drawn): 150
- CCCCNC(=O)N1CCC(NC(=O)c2nn(-c3ccc(Cl)cc3Cl)c(-c3ccc(Cl)cc3)c2C)CC1: 78.1

Challenge: Can you look up the measured Ke of Cc1c(C(=O)N[C@H]2CCCN(C(=O)OC(C)(C)C)C2)nn(-c2ccc(Cl)cc2Cl)c1-c1ccc(Cl)cc1 for me?
Response given: 842

Challenge: Suppose we examine the molecule Cc1c(C(=O)NC2CCN(S(N)(=O)=O)CC2)nn(-c2ccc(Cl)cc2Cl)c1-c1ccc(Cl)cc1 ; what Ke value has been reported?
Response given: 592

Challenge: So what's the measured Ke for this one? Cc1c(C(=O)N2CCC(NC(=O)NCc3ccccc3)(c3ccccc3)CC2)nn(-c2ccc(Cl)cc2Cl)c1-c1ccc(Cl)cc1
Response given: 2.1

Challenge: Using the record for Cc1c(C(=O)N[C@H]2CCCN(C(=O)NC(C)(C)C)C2)nn(-c2ccc(Cl)cc2Cl)c1-c1ccc(Cl)cc1 , report its Ke.
Response given: 206

These entries and their values trace back to ChEMBL document CHEMBL2029271.
